- Assay target: hNav1.7 (Homo sapiens (Human), UniProt Q15858)
- Sequence (Q15858 whole entry, looked up): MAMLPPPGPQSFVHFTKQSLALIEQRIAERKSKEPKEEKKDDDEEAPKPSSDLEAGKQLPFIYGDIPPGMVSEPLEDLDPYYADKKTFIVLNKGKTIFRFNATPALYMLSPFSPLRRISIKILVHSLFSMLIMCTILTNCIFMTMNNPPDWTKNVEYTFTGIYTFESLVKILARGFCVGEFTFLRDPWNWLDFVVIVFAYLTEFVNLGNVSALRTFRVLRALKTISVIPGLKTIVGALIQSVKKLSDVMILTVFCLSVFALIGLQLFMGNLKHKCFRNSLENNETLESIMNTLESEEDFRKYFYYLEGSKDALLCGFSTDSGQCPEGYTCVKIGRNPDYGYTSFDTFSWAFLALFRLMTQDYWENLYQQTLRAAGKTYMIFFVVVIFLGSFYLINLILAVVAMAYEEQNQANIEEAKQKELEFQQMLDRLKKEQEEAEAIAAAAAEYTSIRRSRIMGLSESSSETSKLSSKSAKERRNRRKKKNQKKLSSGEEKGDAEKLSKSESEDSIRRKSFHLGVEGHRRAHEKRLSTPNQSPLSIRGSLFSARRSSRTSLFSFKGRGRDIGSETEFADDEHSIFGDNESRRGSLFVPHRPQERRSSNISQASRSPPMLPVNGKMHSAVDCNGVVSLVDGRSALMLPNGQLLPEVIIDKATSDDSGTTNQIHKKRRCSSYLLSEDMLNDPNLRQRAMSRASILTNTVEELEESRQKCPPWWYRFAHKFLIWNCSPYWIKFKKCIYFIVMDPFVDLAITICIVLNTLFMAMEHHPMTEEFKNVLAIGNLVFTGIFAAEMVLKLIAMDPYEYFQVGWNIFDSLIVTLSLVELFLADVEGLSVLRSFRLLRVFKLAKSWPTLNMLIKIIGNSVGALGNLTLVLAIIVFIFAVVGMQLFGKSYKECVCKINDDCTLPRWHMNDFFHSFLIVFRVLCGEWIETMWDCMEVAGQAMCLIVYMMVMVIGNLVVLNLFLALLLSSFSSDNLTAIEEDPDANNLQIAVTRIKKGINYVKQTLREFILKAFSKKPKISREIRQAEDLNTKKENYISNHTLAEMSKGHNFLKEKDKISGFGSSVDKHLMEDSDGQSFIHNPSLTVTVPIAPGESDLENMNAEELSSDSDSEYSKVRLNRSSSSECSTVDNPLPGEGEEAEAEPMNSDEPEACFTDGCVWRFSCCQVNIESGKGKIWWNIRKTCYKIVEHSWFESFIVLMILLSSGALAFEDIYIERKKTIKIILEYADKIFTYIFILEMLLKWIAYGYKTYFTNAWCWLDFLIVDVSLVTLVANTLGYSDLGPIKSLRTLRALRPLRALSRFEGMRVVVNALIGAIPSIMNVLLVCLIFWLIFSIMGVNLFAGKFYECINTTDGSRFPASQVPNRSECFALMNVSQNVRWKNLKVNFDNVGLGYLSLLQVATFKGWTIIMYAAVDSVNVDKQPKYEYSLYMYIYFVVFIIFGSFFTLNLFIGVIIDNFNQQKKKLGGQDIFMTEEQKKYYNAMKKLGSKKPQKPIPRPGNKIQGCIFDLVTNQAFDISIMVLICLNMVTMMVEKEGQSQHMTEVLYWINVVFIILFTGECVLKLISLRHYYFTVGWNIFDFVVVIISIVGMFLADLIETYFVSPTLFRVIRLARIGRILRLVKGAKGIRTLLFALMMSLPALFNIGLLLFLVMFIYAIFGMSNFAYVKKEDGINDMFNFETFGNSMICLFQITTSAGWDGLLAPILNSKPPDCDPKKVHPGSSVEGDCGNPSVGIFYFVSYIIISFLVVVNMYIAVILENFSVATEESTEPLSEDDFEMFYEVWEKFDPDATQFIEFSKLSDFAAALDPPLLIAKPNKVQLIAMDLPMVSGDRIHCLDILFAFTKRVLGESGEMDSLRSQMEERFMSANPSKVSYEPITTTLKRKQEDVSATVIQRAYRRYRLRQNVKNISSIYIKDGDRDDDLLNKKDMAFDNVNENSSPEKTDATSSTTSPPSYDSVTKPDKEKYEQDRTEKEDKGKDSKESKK
- Sequence (Q07699 whole entry partner, looked up): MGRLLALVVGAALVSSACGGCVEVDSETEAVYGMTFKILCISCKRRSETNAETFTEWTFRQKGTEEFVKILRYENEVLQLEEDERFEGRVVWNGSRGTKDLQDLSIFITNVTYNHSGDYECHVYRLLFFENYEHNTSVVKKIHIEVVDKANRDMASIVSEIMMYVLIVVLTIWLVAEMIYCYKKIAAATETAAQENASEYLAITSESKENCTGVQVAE
- Assay procedure: Tritiated compound binding to membranes from cells expressing hNav1.7 and the β1 subunit (Nav1.7 LBA EVO)
- Experimental context: competitive binding vs [3H]compound, membranes with hNav1.7 and β1 subunit
pIC50: −log10 of the molar value. Where a name gives a salt, the structure may show the parent alone.
Measured pIC50 of individual entries
Readout: pIC50

>  <Molecule>
CCc1nc(O[C@H]2CC[C@H](c3cccc(C(F)(F)F)c3)C[C@@H]2N(C)C)ccc1S(=O)(=O)Nc1ccncn1 [Example 33]

>  <Assay target>
hNav1.7 (Homo sapiens (Human), UniProt Q15858)

>  <Numeric result>
8.81

$$$$
>  <Molecule>
Cc1nc(O[C@H]2CC[C@H](c3ccc(Cl)c(C(F)(F)F)c3)C[C@@H]2N(C)C)ccc1S(=O)(=O)Nc1ccncn1 [Example 36]

>  <Assay target>
hNav1.7 (Homo sapiens (Human), UniProt Q15858)

>  <Numeric result>
8.89

$$$$
>  <Molecule>
O=S(=O)(Nc1ccncn1)c1ccc(N[C@H]2CC[C@H](c3cccc(OC(F)(F)F)c3)C[C@@H]2N2CCCC2)nc1 [Example 9, formate]

>  <Assay target>
hNav1.7 (Homo sapiens (Human), UniProt Q15858)

>  <Numeric result>
8.39

$$$$
>  <Molecule>
CN(C)[C@H]1C[C@@H](c2cccc(C(F)(F)F)c2)CC[C@@H]1Oc1ncc(S(=O)(=O)Nc2ccncn2)cc1Br [Example 20, formate]

>  <Assay target>
hNav1.7 (Homo sapiens (Human), UniProt Q15858)

>  <Numeric result>
7.55

$$$$
>  <Molecule>
O=S(=O)(Nc1ccncn1)c1cnc(O[C@H]2CC[C@H](c3cccc(C(F)(F)F)c3)C[C@@H]2N2CCCC2)c(Cl)c1 [Example 18]

>  <Assay target>
hNav1.7 (Homo sapiens (Human), UniProt Q15858)

>  <Numeric result>
9.02

$$$$

---

- Assay target: hNav1.7 (Homo sapiens (Human))
- Assay procedure: Tritiated compound binding to membranes from cells expressing hNav1.7 and the β1 subunit (Nav1.7 LBA EVO)
- Experimental context: competitive binding vs [3H]compound, membranes with hNav1.7 and β1 subunit
- Protocol: Example 64a. Tritiated Compound Binding to Membranes Isolated from Cells that Heterologously Express hNav1.7 and the β1 Subunit Preparation of membranes containing recombinantly expressed sodium channels: Frozen recombinant cell pellets are thawed on ice and diluted to 4 times the cell pellet weight with ice cold 50 mM Tris HCl, pH 7.4 buffer. […] Protein concentrations arer determined by Bradford Assay and the membranes are stored at −80° C. […]
pIC50: −log10 of the molar value. Counter-ions that a name gives are not always drawn.
Measured pIC50 of individual entries

>  <Compound>
CN(C)[C@H]1C[C@@H](c2cccc(C(F)(F)F)c2)CC[C@@H]1Nc1ncc(S(=O)(=O)Nc2ccncn2)cc1Cl

>  <pIC50>
8.08

$$$$
>  <Compound>
O=S(=O)(Nc1ccncn1)c1ccc(O[C@H]2CC[C@H](c3cccc(C(F)(F)F)c3)C[C@@H]2N2CCCC2)nc1 [Example 17, formate]

>  <pIC50>
8.93

$$$$
>  <Compound>
Cc1nc(O[C@H]2CC[C@H](c3cccc(C(F)(F)F)c3)C[C@@H]2N2CCCC2)ccc1S(=O)(=O)Nc1ccncn1

>  <pIC50>
7.17

$$$$
>  <Compound>
Cc1nc(O[C@H]2CC[C@H](c3ccc(F)c(C(F)(F)F)c3)C[C@@H]2N(C)C)ccc1S(=O)(=O)Nc1ccncn1 [Example 45, formate]

>  <pIC50>
9.04

$$$$
>  <Compound>
CN(C)[C@H]1C[C@@H](c2ccc(Cl)c(C(F)(F)F)c2)CC[C@@H]1Nc1ccc(S(=O)(=O)Nc2ccncn2)cn1 [Example 11, formate]

>  <pIC50>
7.78

$$$$
>  <Compound>
Cc1cc(S(=O)(=O)Nc2ccncn2)cnc1O[C@H]1CC[C@H](c2cccc(C(F)(F)F)c2)C[C@@H]1N(C)C

>  <pIC50>
7.39

$$$$
>  <Compound>
CN(C)[C@H]1C[C@@H](c2cccc(C(F)(F)F)c2)CC[C@@H]1Oc1ccc(S(=O)(=O)Nc2ccncn2)c(C2CC2)n1

>  <pIC50>
8.94

$$$$
>  <Compound>
Cc1cc([C@H]2CC[C@H](Oc3ccc(S(=O)(=O)Nc4ccncn4)c(C)n3)[C@@H](N(C)C)C2)cc(C(F)(F)F)c1

>  <pIC50>
8.54

$$$$
>  <Compound>
Cc1nc(O[C@H]2CC[C@H](c3cccc(C(F)(F)F)c3)C[C@@H]2N(C)C2CCC2)ccc1S(=O)(=O)Nc1ccncn1

>  <pIC50>
8.95

$$$$
>  <Compound>
CN(C)[C@H]1C[C@@H](c2cccc(C(F)(F)F)c2)CC[C@@H]1Oc1cc(Cl)c(S(=O)(=O)Nc2ccncn2)cn1

>  <pIC50>
8.72

$$$$
>  <Compound>
CN(C)[C@H]1C[C@@H](c2cccc(SC(F)(F)F)c2)CC[C@@H]1Oc1ccc(S(=O)(=O)Nc2ccncn2)cn1

>  <pIC50>
9.20

$$$$
>  <Compound>
CN(C)[C@H]1C[C@@H](c2ccc(Cl)c(C(F)(F)F)c2)CC[C@@H]1Oc1ccc(S(=O)(=O)Nc2ccncn2)cn1 [Example 12, formate]

>  <pIC50>
8.90

$$$$
>  <Compound>
CN(C)[C@H]1C[C@@H](c2cccc(Cl)c2)CC[C@@H]1Oc1ncc(S(=O)(=O)Nc2ccncn2)cc1Cl

>  <pIC50>
8.15

$$$$
>  <Compound>
CN(C)[C@H]1C[C@@H](c2cccc(OC(F)(F)F)c2)CC[C@@H]1Oc1ncc(S(=O)(=O)Nc2ccncn2)cc1Cl

>  <pIC50>
7.86

$$$$
